Cited source for all entries: patent US6306613A

Below, each of the compounds is paired with its reported IC50 value.
Test system: export of 18 kD FGF-2 from COS cells
Method Description: FGF-2 export from transfected COS cells, pulse-chase and immunoprecipitation
Type: cell-based
Setup Conditions: FGF-2 export, COS cells, modulator in chase medium; read-out: concentration that inhibits 50% of leaderless protein export
Endpoint: IC50

[
  {
    "Smiles Repr": "C[C@@H]1O[C@@H](O[C@H]2C[C@@H](O)[C@]3(CO)[C@H]4[C@H](O)C[C@]5(C)[C@@H](C6=CC(=O)OC6)CC[C@]5(O)[C@@H]4CC[C@]3(O)C2)[C@H](O)[C@H](O)[C@H]1O",
    "Assay Value": "~100 nM"
  },
  {
    "Smiles Repr": "C[C@H]1O[C@@H](O[C@H]2[C@@H](O)C[C@H](O[C@H]3[C@@H](O)C[C@H](O[C@H]4CC[C@@]5(C)[C@H](CC[C@@H]6[C@@H]5C[C@@H](O)[C@]5(C)[C@@H](C7=CC(=O)OC7)CC[C@]65O)C4)O[C@@H]3C)O[C@@H]2C)C[C@H](O)[C@@H]1O",
    "Assay Value": "~5000 nM"
  }
]
